Assay Overview: Selectivity index, ratio of CC50 for mock-infected human MT4 cells to EC50 for HIV1 infected in human MT4 cells
Type: toxicity, cell-based
Cond: MT4 cells (mock-infected and HIV1-infected), read-out: Ratio CC50/EC50
Quantity: selectivity ratio
Write no unit; give the number alone.

The recorded selectivity ratio for CC(C)c1c(COC(N)=O)cn(Cc2ccc(N)cc2)c1Sc1cc(Cl)cc(Cl)c1 is 2000

Note to self: selectivity ratio recorded for CC(C)c1c(COC(N)=O)cn(Cc2ccncc2)c1Sc1cccc(F)c1 was 1000

Sure, the documented selectivity ratio for CC(C)c1c(COC(N)=O)cn(Cc2ccncc2)c1Sc1cc(F)cc(F)c1 is 2000

Just so you know, measured selectivity ratio for CCC1(CC=C(C)C)Sc2ccccc2-n2cccc2C1=O (stereo unspecified) came out at 9

GET /value?item= CC(C)c1c(CO)cn(Cc2ccncc2)c1Sc1cccc(F)c1 &field=selectivity ratio returns 1420

So for CCC1(c2ccccc2)Sc2ccccc2-n2cccc2C1=O (stereo unspecified) , the logged selectivity ratio turned out to be 9

For record CCC1(c2ccc3ccccc3c2)Sc2ccccc2-n2cccc2C1=O (stereo unspecified) the listed selectivity ratio is 9

Reported selectivity ratio of Cc1cccc(Sc2c(C(C)C)c(CO)cn2Cc2ccncc2)c1 : 3250

selectivity ratio reading for Cc1cc(C)cc(Sc2c(C(C)C)c(COC(N)=O)cn2Cc2ccncc2)c1 : 1330

What the record says about CC(C)=CCn1cc2c(c1)S(=O)(=O)c1cc(Cl)ccc1NC2=O : selectivity ratio is 226

Lookup result for Cc1cccc(Sc2c(C(C)C)c(COC(N)=O)cn2Cc2ccncc2)c1 ; measured selectivity ratio: 1670

response.value for CC1(c2ccccc2)Sc2ccccc2-n2cccc2C1=O (stereo unspecified) (field: selectivity ratio) = 9

# selectivity ratio of CCN1C(=O)c2cccn2S(=O)(=O)c2cc(Cl)ccc21 = 118

Entry C=CCC1(c2ccccc2)Sc2ccccc2-n2cccc2C1=O (stereo unspecified) — recorded selectivity ratio = 9

----------
System: Human immunodeficiency virus 1
Assay Overview: Antiviral activity against CXCR4-tropic HIV1 NL4-3 infected in human MT2 cells by monogram phenosense entry assay
Format: functional, organism-based
Cond: Human immunodeficiency virus 1, NL4-3, MT2
Quantity: EC50 (nM)
Answer in nM, number only, no unit symbol.

response.value for COc1cnc(-n2cnc(C)n2)c2[nH]cc(C(=O)C(=O)N3CCN(C(=O)c4ccccc4)CC3)c12 (field: EC50) = 2.2

----------
System: Human immunodeficiency virus 1
Assay Overview: Antiviral activity against HIV1 93BR020 assessed as inhibition of virus mediated cell fusion between CEMx174 5.25M7 cells and PBMC/HIV1 93BR020 cells
Format: functional, organism-based
Cond: Human immunodeficiency virus 1, 93BR020, CEMx174 5.25M7
I'd be grateful if you could share measured pEC50 for these entries.
Convention used: pEC50 is expressed as -log10 of the molar concentration.

The compound listed as Cc1ccc(C)n1-c1ccc(C(=O)O)c(O)c1 shows pEC50 equal to 5.15

Briefly, pEC50 measured for O=C(O)c1cc(-n2cccc2)ccc1Cl : 5.00

----------
Test system: Human immunodeficiency virus 1
Assay Overview: Antiviral activity against HIV1 3B infected in human C8166 cells assessed as inhibition of virus replication
Assay type: functional, organism-based
Cond: Human immunodeficiency virus 1, 3B
Quantity: pEC50
Would you please state pEC50, meaning minus log10 of the concentration in mol/L, as a bare number?

The compound listed as CCC1(c2cccc(OC)c2)Oc2ccccc2-n2cccc2C1=O (stereo unspecified) shows pEC50 equal to 7.48

----------
Tested on: Human immunodeficiency virus
Assay Overview: Antiviral activity against HIV
Format: functional, organism-based
Cond: Human immunodeficiency virus 1
Quantity: IC50 (µM)
# output: bare number, implied unit µM

Record CSc1c(C#N)c2c(N)ncnc2n1COC(CO)CO . Reported IC50: 20

Documented IC50 of N#Cc1cn(COC(CO)CO)c2nc(N)nc(O)c12 : 3

Measured IC50 of N#Cc1cn(COCCO)c2ncnc(N)c12 : 46

----------
Subject Of Test: Human immunodeficiency virus type 1 reverse transcriptase (Human immunodeficiency virus 1)
Assay Overview: Inhibition of HIV1 reverse transcriptase
Quantity: IC50 (nM)
Form entry: value (nM) — number only.

// field: IC50; key: C=CCN1C(=O)c2cccn2S(=O)(=O)c2cc(Cl)ccc21 ; value = 2900

IC50 measured on O=C(NNc1nc2ccccc2n2cccc12)c1cnccn1 = 19000

# IC50 of O=C1Nc2ccccc2S(=O)(=O)n2cccc21 = 4000

Reported IC50 ( CCN1C(=O)c2cccn2S(=O)(=O)c2cc(Cl)ccc21 ) = 2700

For reference, reported IC50 for CCC1(c2ccccc2)Sc2ccccc2-n2cccc2C1=O (stereo unspecified) stands at 470

Reported IC50 for C=CCC1(c2ccccc2)Sc2ccccc2-n2cccc2C1=O (stereo unspecified) was 710

----------
Provide the reported CC50 of each item.
Assay Overview: Cytotoxicity against mock-infected human MT4 cells assessed as reduction in cell viability
Assay type: cell-based

CC50 for CC(C)N1C(=O)c2cccn2S(=O)(=O)c2ccccc21 is > 100 µM

Value of measured CC50 for the entry CCN1C(=O)c2cccn2S(=O)(=O)c2cc(Cl)ccc21 : > 300 µM

The reported value for C/C=C/CN1C(=O)c2cccn2S(=O)(=O)c2cc(Cl)ccc21 in terms of CC50 is > 300 µM

// CC50 lookup, compound = O=C1Nc2ccc(Cl)cc2S(=O)(=O)n2cccc21 , result: > 300 µM

Measured CC50 of C=CCN1C(=O)c2cccn2S(=O)(=O)c2cc(Cl)ccc21 : > 300 µM

The reported value for CCC1(c2ccccc2)Sc2ccccc2-n2cccc2C1=O (stereo unspecified) in terms of CC50 is 0.25 µM

----------
Please provide measured EC50 for the entries that follow.
System: Human immunodeficiency virus 2
Assay Overview: Antiviral activity against HIV2 LAI
Assay type: functional, organism-based
Cond: Human immunodeficiency virus 2, LAI
Respond with a number, then the unit of measure.

Value (EC50, Human immunodeficiency virus 2) for record O=C(C(=O)N1CCN(C(=O)c2ccccc2)CC1)c1c[nH]c2cccc(F)c12 = 850 nM

Record O=C(C(=O)N1CCN(C(=O)c2ccccc2)CC1)c1c[nH]c2ccccc12 has Human immunodeficiency virus 2 EC50 equal to 850 nM

----------
Tested on: Human immunodeficiency virus
Assay Overview: Antiviral activity against HIV by XTT assay
Format: functional, organism-based
Cond: Human immunodeficiency virus 1
Quick rule for you: IC50 under 800 nM gets 1, anything else gets -1.

(Q) Answer whether the molecule CCCC(=O)NC1=NN(C)c2ncnc3c2c1cn3[C@@H]1O[C@H](CO)[C@@H](O)[C@H]1O has IC50 strictly less than 800 nM
(A) 1

(Q) Confirm or reject: IC50 of CCCCCCC(=O)NC1=NN(C)c2ncnc3c2c1cn3[C@@H]1O[C@H](CO)[C@@H](O)[C@H]1O lies strictly below 800 nM
(A) 1

(Q) Regarding CN1N=C(N)c2cn([C@@H]3O[C@H](CO)[C@@H](O)[C@H]3O)c3nc(-c4ccccc4)nc1c23 , kindly confirm whether its IC50 is beneath 800 nM.
(A) -1

(Q) Hello, is IC50 of the following molecule strictly smaller than 800 nM? CCCCCCCCCC(=O)NC1=NN(C)c2ncnc3c2c1cn3[C@@H]1O[C@H](CO)[C@@H](O)[C@H]1O
(A) -1

(Q) Is IC50 of CCCCCCCCCCCC(=O)NC1=NN(C)c2ncnc3c2c1cn3[C@@H]1O[C@H](CO)[C@@H](O)[C@H]1O strictly below 800 nM?
(A) -1

(Q) Consider CCCCCCCCC(=O)NC1=NN(C)c2ncnc3c2c1cn3[C@@H]1O[C@H](CO)[C@@H](O)[C@H]1O . Does its IC50 lie strictly below 800 nM?
(A) -1

(Q) Check if IC50 falls below 800 nM for CCCCCCCC(=O)NC1=NN(C)c2ncnc3c2c1cn3[C@@H]1O[C@H](CO)[C@@H](O)[C@H]1O .
(A) -1

(Q) IC50 strictly < 800 nM for this molecule? CCCCCC(=O)NC1=NN(C)c2ncnc3c2c1cn3[C@@H]1O[C@H](CO)[C@@H](O)[C@H]1O
(A) 1

----------
Exercise: for every item that follows, state its recorded CC50.
Assay Overview: Cytotoxicity against mock-infected human MT4 cells assessed as reduction in cell viability
Type: cell-based
Response body: numeric value in µM, unit text excluded.

Please fill in: CC50 reported for CCC1(CC=C(C)C)Sc2ccccc2-n2cccc2C1=O (centres undefined) = 0.3

Per the record, CCC1(c2ccc3ccccc3c2)Sc2ccccc2-n2cccc2C1=O (centres undefined) has CC50 of 0.5

// field: CC50; key: Cc1cccc(Sc2c(C(C)C)c(CO)cn2Cc2ccncc2)c1 ; value = 50

// recorded CC50 for CC(C)c1c(CO)cn(Cc2ccncc2)c1Sc1cccc(F)c1 : 71

----------
Please go through the items and note down their CC50.
Assay Overview: Cytotoxicity against mock-infected human MT4 cells assessed as reduction in cell viability
Assay type: cell-based

O=C1Nc2ccccc2S(=O)(=O)n2cccc21 yielded CC50 of > 100 µM

Quick note, CC50 for CC1(c2ccccc2)Sc2ccccc2-n2cccc2C1=O (stereo unspecified) landed at 10 µM

Note to self: CC50 recorded for CC(C)=CCn1cc2c(c1)S(=O)(=O)c1cc(Cl)ccc1NC2=O was 68 µM

Lab book: CC50 of C=CCC1(c2ccccc2)Sc2ccccc2-n2cccc2C1=O (stereo unspecified) noted as 25 µM

Reported CC50 for CCN1C(=O)c2cccn2S(=O)(=O)c2ccc(Cl)cc21 was > 100 µM

The compound CCN1C(=O)c2cccn2S(=O)(=O)c2ccccc21 showed CC50 equal to > 100 µM

# CC50 (compound: CC(C)c1c(COC(N)=O)cn(Cc2ccncc2)c1Sc1cccc(F)c1 ) is > 200 µM

compound CN1C(=O)c2cccn2S(=O)(=O)c2ccccc21 , CC50 observed: > 100 µM

The compound listed as Cc1cc(C)cc(Sc2c(C(C)C)c(COC(N)=O)cn2Cc2ccncc2)c1 has a reported CC50 of > 200 µM

// CC50 lookup, compound = CC(C)c1c(COC(N)=O)cn(Cc2ccncc2)c1Sc1cc(F)cc(F)c1 , result: > 200 µM

Entry under test: CC(C)c1c(CO)cn(Cc2ccncc2)c1Sc1cc(Cl)cc(Cl)c1 . Its CC50 was > 200 µM
